- Tested on: SpHse1
- Assay name: SPOT peptide array binding signal intensity (averaged, normalized) (arbitrary units (background-subtracted, floor 0; scale differs between SH3 domains)); higher = stronger binding of the SH3 domain to the peptide
Outcome: rule met for SPOT peptide array binding signal intensity of at least 200; rule not met for anything lower.

-- ask Quick check, SPOT peptide array binding signal intensity >= 200? "YSRKKLPVVLSKMTL"
-- reply rule not met

-- ask Quick check, SPOT peptide array binding signal intensity >= 200? "VSKLRSPNTPRRLRK"
-- reply rule not met

-- ask Quick check, SPOT peptide array binding signal intensity >= 200? "PSTMDFPKLPSFQNS"
-- reply rule met

-- ask Quick check, SPOT peptide array binding signal intensity >= 200? "KNPRRQLQIPRQQPS"
-- reply rule met

-- ask Quick check, SPOT peptide array binding signal intensity >= 200? "LTRRFPFLFPFDTRM"
-- reply rule met

-- ask Quick check, SPOT peptide array binding signal intensity >= 200? "SGVRLPAPPPPPRRG"
-- reply rule not met
